Just for reference, PubChem BioAssay AID449767 is where these values come from.

# Target Of Assay: UniProtKB P08485
# Sequence (P08485 whole entry, looked up): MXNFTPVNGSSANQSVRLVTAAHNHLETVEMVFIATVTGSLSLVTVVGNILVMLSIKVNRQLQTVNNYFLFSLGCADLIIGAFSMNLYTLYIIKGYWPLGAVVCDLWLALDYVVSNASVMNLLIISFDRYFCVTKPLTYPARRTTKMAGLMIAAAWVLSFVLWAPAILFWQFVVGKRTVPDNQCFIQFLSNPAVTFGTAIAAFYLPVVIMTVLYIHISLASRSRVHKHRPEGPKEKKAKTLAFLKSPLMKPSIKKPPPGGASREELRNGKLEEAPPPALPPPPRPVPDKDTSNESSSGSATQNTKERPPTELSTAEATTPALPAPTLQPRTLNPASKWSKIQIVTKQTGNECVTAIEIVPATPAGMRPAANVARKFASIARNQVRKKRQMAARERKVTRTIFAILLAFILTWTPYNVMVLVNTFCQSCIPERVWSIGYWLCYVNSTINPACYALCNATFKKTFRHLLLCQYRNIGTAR
# Assay Overview: acetylcholine potency shift at rat M4, rM4 cells, calcium, ACh concentration-response fold shift (AID 449767); call rule not given here
# Test Conditions: acetylcholine CRC fold-shift, at 30 µM
The reply should name one outcome from 1 (active), -1 (inactive)

Examples from the recorded data:
COCCCNC(=O)c1sc2nc(OCCN3CCOCC3)cc(C)c2c1N	1
COc1ccc(CNC(=O)c2sc3nc(OCCN4CCCC4)cc(C)c3c2N)cc1	1
Cc1cc(OCc2ccncc2)nc2sc(C(=O)NCc3cccc(F)c3F)c(N)c12	1
Cc1cc(OCc2ccccn2)nc2sc(C(=O)NCc3cccc(F)c3F)c(N)c12	1
Cc1cc(OCc2ccccn2)nc2sc(C(=O)NCc3cc(F)ccc3F)c(N)c12	1
COc1ccc(CNC(=O)c2sc3nc(C)cc(C)c3c2N)cc1	1

**Q:** Look up the recorded call for `Cc1cc(C)c2c(N)c(C(=O)NCc3ccc(Cl)cc3)sc2n1` in this test.
**A:** 1

**Q:** Look up the recorded call for `Cc1cc(OCc2ccncc2)nc2sc(C(=O)NCc3cc(F)ccc3F)c(N)c12` in this test.
**A:** 1

**Q:** Look up the recorded call for `Cc1cc(OCCCN(C)C)nc2sc(C(=O)NCc3cc(F)ccc3F)c(N)c12` in this test.
**A:** 1

---

# Target Of Assay: Muscarinic acetylcholine receptor M4 (Rattus norvegicus)
# Assay Overview: acetylcholine potency shift at rat M4, rM4 cells, calcium, ACh concentration-response fold shift (AID 449767); call rule not given here
# Test Conditions: acetylcholine CRC fold-shift, at 30 µM
The reply should name one outcome from Yes = active, No = inactive

Examples from the recorded data:
Cc1cc(OCCN2CCOCC2)nc2sc(C(=O)NC(C)C)c(N)c12	Yes
Cc1cc(OCCCN(C)C)nc2sc(C(=O)NC3COC3)c(N)c12	Yes
Cc1cc(OCCN2CCOCC2)nc2sc(C(=O)NC3COC3)c(N)c12	Yes
Cc1cc(C)c2c(N)c(C(=O)NCc3ccc4c(c3)OCO4)sc2n1	Yes
Cc1cc(C)c2c(N)c(C(=O)NCc3cccc(F)c3F)sc2n1	Yes
COc1ccc(CNC(=O)c2sc3nc(OCCN4CCOCC4)cc(C)c3c2N)cc1	Yes

**Q:** Look up the recorded call for `Cc1cc(C)c2c(N)c(C(=O)NCc3ccccc3)sc2n1` in this test.
**A:** Yes

**Q:** Look up the recorded call for `COc1ccc(CNC(=O)c2sc3nc(OCc4ccccn4)cc(C)c3c2N)cc1` in this test.
**A:** Yes

---

# Target Of Assay: Muscarinic acetylcholine receptor M4 (Rattus norvegicus)
# Assay Overview: acetylcholine potency shift at rat M4, rM4 cells, calcium, ACh concentration-response fold shift (AID 449767)
# Test Conditions: acetylcholine CRC fold-shift, at 30 µM
Activity calls are given as the source filed them. How the calls were made is not given here.
The reply should name one outcome from t = active, f = inactive

Examples from the recorded data:
COc1ccc(CNC(=O)c2sc3nc(OCc4cccnc4)cc(C)c3c2N)cc1	t
Cc1cc(C)c2c(N)c(C(=O)NCc3ccccc3F)sc2n1	t
COc1ccc(CNC(=O)c2sc3nc(OCCCN(C)C)cc(C)c3c2N)cc1	f

**Q:** Look up the recorded call for `Cc1cc(OCCN2CCOCC2)nc2sc(C(=O)NC(C)(C)C)c(N)c12` in this test.
**A:** t

**Q:** Look up the recorded call for `Cc1cc(OCCN2CCOCC2)nc2sc(C(=O)Nc3ccccc3)c(N)c12` in this test.
**A:** t

**Q:** Look up the recorded call for `COc1ccc(CNC(=O)c2sc3nc(OCc4ccncc4)cc(C)c3c2N)cc1` in this test.
**A:** t
